Test system Acetylcholinesterase (AChE, from electric eel) (Electrophorus electricus, UniProt O42275), pIC50 listed for each of the molecules.
The read-out pIC50 is expressed as -log10 of concentration in moles per litre.

Examples with answers:
CC1=C(C(=O)NC(=O)c2cnccn2)C(c2ccc(Cl)cc2)NC(=S)N1 (stereo not drawn); 6.06
CC1=C(C(=O)NC(=O)c2cnccn2)C(c2ccc(F)cc2)NC(=S)N1 (stereo not drawn); 6.12
CC1=C(C(=O)NC(=O)c2cnccn2)C(c2ccc(Cl)cc2)NC(=O)N1 (stereo not drawn); 6.03

Next molecule, pIC50 to be filled in.
Summary: CC1=C(C(=O)NC(=O)c2cnccn2)C(c2ccc(F)cc2)NC(=O)N1 (stereo not drawn) , Acetylcholinesterase (AChE, from electric eel) (Electrophorus electricus, UniProt O42275), pIC50 = 6.07

----------
Listed here are molecules together with their documented log10 of IC50.
Target: Acetylcholinesterase (AChE, from electric eel) (Electrophorus electricus)
Sequence (O42275 24-633): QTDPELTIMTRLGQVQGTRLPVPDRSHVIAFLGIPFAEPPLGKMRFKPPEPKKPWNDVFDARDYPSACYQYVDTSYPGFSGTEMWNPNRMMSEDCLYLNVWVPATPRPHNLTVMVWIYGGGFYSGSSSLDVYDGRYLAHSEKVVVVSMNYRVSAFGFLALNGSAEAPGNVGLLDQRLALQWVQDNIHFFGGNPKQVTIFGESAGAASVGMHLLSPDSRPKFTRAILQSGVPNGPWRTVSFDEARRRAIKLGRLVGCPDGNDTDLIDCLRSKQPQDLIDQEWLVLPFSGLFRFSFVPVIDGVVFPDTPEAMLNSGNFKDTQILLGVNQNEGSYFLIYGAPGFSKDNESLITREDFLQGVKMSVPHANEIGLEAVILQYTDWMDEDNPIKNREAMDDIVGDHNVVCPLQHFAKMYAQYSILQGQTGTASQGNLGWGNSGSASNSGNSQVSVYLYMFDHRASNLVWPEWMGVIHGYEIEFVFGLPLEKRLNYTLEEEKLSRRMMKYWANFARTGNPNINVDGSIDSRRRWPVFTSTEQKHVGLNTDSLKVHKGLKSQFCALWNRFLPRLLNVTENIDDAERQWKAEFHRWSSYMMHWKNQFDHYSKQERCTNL
Assay: In vitro AChE inhibition assay
Type: biochemical
Recorded IC50 (log10, nM)

CC1=C(C(=O)NC(=O)c2cnccn2)C(c2ccccc2)NC(=S)N1 (centres unmarked); 3.72
CC1=C(C(=O)NC(=O)c2cnccn2)C(c2ccncc2)NC(=O)N1 (centres unmarked); 2.28
CC1=C(C(=O)NC(=O)c2cnccn2)C(c2cccc(Cl)c2)NC(=S)N1 (centres unmarked); 3.02

Summary: CC1=C(C(=O)NC(=O)c2cnccn2)C(c2cccc([N+](=O)[O-])c2)NC(=O)N1 (centres unmarked) , Acetylcholinesterase (AChE, from electric eel) (Electrophorus electricus), log10 of IC50 = 3.40

----------
Test system Acetylcholinesterase (AChE, from electric eel) (Electrophorus electricus, UniProt O42275), IC50 listed for each of the compounds.
# number only, unit nM dropped from output

CC1=C(C(=O)NC(=O)c2cnccn2)C(c2cccc([N+](=O)[O-])c2)NC(=S)N1 (stereo not shown) [Compound 4d]; 1820
CC1=C(C(=O)NC(=O)c2cnccn2)C(c2cccc(Cl)c2)NC(=O)N1 (stereo not shown) [Compound 4e]; 1210
CC1=C(C(=O)NC(=O)c2cnccn2)C(c2ccncc2)NC(=S)N1 (stereo not shown) [Compound 4l]; 110

Next compound, IC50 to be filled in.
Summary: CC1=C(C(=O)NC(=O)c2cnccn2)C(c2ccccc2)NC(=O)N1 (stereo not shown) [Compound 4a] , Acetylcholinesterase (AChE, from electric eel) (Electrophorus electricus, UniProt O42275), IC50 = 5350

These data points were gathered from paper PMC5466188.
